Data provenance: ChEMBL document CHEMBL4020840

- Tested on: MDA-MB-231
- Experiment summary: Growth inhibition of human MDA-MB-231 cells after 48 hrs by MTT assay
- Assay type: functional, cell-based
- Conditions used: MDA-MB-231, 48 h
Parameter measured: IC50 (nM)
API: value field is a number in nM; no unit string.

Before answering, review these 3 worked examples.
>>> experimental_value("COc1ccc(N(C)c2nc(C)nc3ccccc23)cc1C(=O)OCCCCC[Se]C#N")
851
>>> experimental_value("COc1ccc(N(C)c2nc(C)nc3ccccc23)cc1OCCCCC[Se]C#N")
4410
>>> experimental_value("Cc1nc(N(C)c2ccc([Se]C#N)cc2)c2ccccc2n1")
20

Now for another entry.
Req: // returns reported IC50 for input "COc1ccc(N(C)c2nc(C)nc3ccccc23)cc1[Se]C#N"
Resp: 52

====

Reported pIC50 values for the following compounds.
- System: MGC-803
- Experiment summary: Antiproliferative activity against human MGC803 cells after 48 hrs by MTT assay
- Assay type: functional, cell-based
- Conditions used: MGC-803, 48 h
Keep in mind that pIC50 stands for -log10 of concentration in molar terms.

Before answering, review these 3 worked examples.
>>> experimental_value("C[Se]c1ccc(N(C)c2nc(C)nc3ccccc23)cc1F")
8.15
>>> experimental_value("C[Se]c1ccc(N(C)c2nc(C)nc3ccccc23)cc1")
8.15
>>> experimental_value("COc1ccc(N(C)c2nc(C)nc3ccccc23)cc1 [VERUBULIN]")
8.10

Req: Please tell me: pIC50 of "Cc1nc(N(C)c2ccc([Se]C#N)cc2)c2ccccc2n1" , system MGC-803?
Resp: 7.92

====

Reported pIC50 values for the following compounds.
- System: LoVo
- Experiment summary: Growth inhibition of human LoVo cells after 48 hrs by MTT assay
- Format: functional, cell-based
Keep in mind that pIC50 stands for -log10 of concentration in molar terms.

Before answering, review these 7 worked examples.
>>> experimental_value("C[Se]c1ccc(N(C)c2nc(C)nc3ccccc23)cc1F")
8.05
>>> experimental_value("[2H]C([2H])([2H])c1nc(N(C)c2ccc([Se]C#N)cc2)c2ccccc2n1")
7.85
>>> experimental_value("COc1ccc(N(C)c2nc(C)nc3ccccc23)cc1[Se]C")
8.52
>>> experimental_value("[2H]C([2H])([2H])c1nc(N(C)c2ccc([Se]C)cc2)c2ccccc2n1")
8.30
>>> experimental_value("C[Se]c1ccc(N(C)c2nc(C)nc3ccccc23)cc1")
8.05
>>> experimental_value("COc1ccc(N(C)c2nc(C)nc3ccccc23)cc1[Se]C#N")
7.14
>>> experimental_value("COc1ccc(N(C)c2nc(C)nc3ccccc23)cc1C(=O)OCCC[Se]C#N")
6.07

Now for another entry.
Req: // returns reported pIC50 for input "C[Se]c1ccc(N(C)c2nc(C3CC3)nc3ccccc23)cc1"
Resp: 7.96

====

- System: LoVo
- Experiment summary: Growth inhibition of human LoVo cells after 48 hrs by MTT assay
- Type: functional, cell-based
Reported IC50 values for the following molecules.
API: value field is a number in nM; no unit string.

Before answering, review these 2 worked examples.
>>> experimental_value("COc1ccc(N(C)c2nc(C)nc3ccccc23)cc1 [VERUBULIN]")
8
>>> experimental_value("Cc1nc(N(C)c2ccc([Se]C#N)c(C)c2)c2ccccc2n1")
19

Req: // returns reported IC50 for input "COc1ccc(N(C)c2nc(C)nc3ccccc23)cc1C[Se]C#N"
Resp: 277

====

- System: MDA-MB-231
- Experiment summary: Growth inhibition of human MDA-MB-231 cells after 48 hrs by MTT assay
- Type: functional, cell-based
- Conditions used: MDA-MB-231, 48 h
Reported IC50 values for the following molecules.
API: value field is a number in µM; no unit string.

Before answering, review these 8 worked examples.
>>> experimental_value("COc1ccc(N(C)c2nc(C)nc3ccccc23)cc1C(=O)OCC[Se]C#N")
1.48
>>> experimental_value("COc1ccc(N(C)c2nc(C)nc3ccccc23)cc1C[Se]C#N")
0.153
>>> experimental_value("COc1ccc(N(C)c2nc(C)nc3ccccc23)cc1")
0.008
>>> experimental_value("CN(c1ccc([Se]C#N)cc1)c1nc(C2CC2)nc2ccccc12")
0.029
>>> experimental_value("Cc1nc(N(C)c2ccc(OCC[Se]C#N)cc2)c2ccccc2n1")
0.317
>>> experimental_value("COc1ccc(N(C)c2nc(C)nc3ccccc23)cc1C(=O)OCCCCCC[Se]C#N")
2.21
>>> experimental_value("C[Se]c1ccc(N(C)c2nc(C)nc3ccccc23)cc1")
0.004
>>> experimental_value("C[Se]c1ccc(N(C)c2nc(C3CC3)nc3ccccc23)cc1")
0.018

Req: Please tell me: IC50 of "[2H]C([2H])([2H])c1nc(N(C)c2ccc([Se]C#N)cc2)c2ccccc2n1" , system MDA-MB-231?
Resp: 0.011

Req: Please tell me: IC50 of "COc1ccc(N(C)c2nc(C)nc3ccccc23)cc1OCCC[Se]C#N" , system MDA-MB-231?
Resp: 0.815

====

Reported IC50 values for the following molecules.
- System: MDA-MB-231
- Experiment summary: Growth inhibition of human MDA-MB-231 cells after 48 hrs by MTT assay
- Assay type: functional, cell-based
- Conditions used: MDA-MB-231, 48 h
API: value field is a number in nM; no unit string.

Before answering, review these 2 worked examples.
>>> experimental_value("COc1ccc(N(C)c2nc(C)nc3ccccc23)cc1OCCCC[Se]C#N")
1350
>>> experimental_value("COc1ccc(N(C)c2nc(C)nc3ccccc23)cc1OCC[Se]C#N")
13

Req: Please tell me: IC50 of "Cc1nc(N(C)c2ccc([Se]C#N)c(F)c2)c2ccccc2n1" , system MDA-MB-231?
Resp: 6

====

Reported IC50 values for the following compounds.
- System: MDA-MB-231
- Experiment summary: Growth inhibition of human MDA-MB-231 cells after 48 hrs by MTT assay
- Assay type: functional, cell-based
- Conditions used: MDA-MB-231, 48 h
API: value field is a number in nM; no unit string.

Before answering, review these 3 worked examples.
>>> experimental_value("COc1ccc(N(C)c2nc(C)nc3ccccc23)cc1C(=O)OCCCC[Se]C#N")
554
>>> experimental_value("Cc1nc(N(C)c2ccc([Se]C#N)c(Cl)c2)c2ccccc2n1")
9
>>> experimental_value("COc1ccc(N(C)c2nc(C)nc3ccccc23)cc1OCCCCCC[Se]C#N")
3550

Req: Please tell me: IC50 of "Cc1nc(N(C)c2ccc([Se]C#N)c(C)c2)c2ccccc2n1" , system MDA-MB-231?
Resp: 16

Req: Please tell me: IC50 of "C[Se]c1ccc(N(C)c2nc(C)nc3ccccc23)cc1Cl" , system MDA-MB-231?
Resp: 7

Req: Please tell me: IC50 of "C[Se]c1ccc(N(C)c2nc(C)nc3ccccc23)cc1C" , system MDA-MB-231?
Resp: 7

Req: Please tell me: IC50 of "COc1ccc(N(C)c2nc(C)nc3ccccc23)cc1OCCN" , system MDA-MB-231?
Resp: 682

Req: Please tell me: IC50 of "COc1ccc(N(C)c2nc(C)nc3ccccc23)cc1C(=O)NCC[Se]C#N" , system MDA-MB-231?
Resp: 1250

Req: Please tell me: IC50 of "C[Se]c1ccc(N(C)c2nc(C)nc3ccccc23)cc1F" , system MDA-MB-231?
Resp: 5

Req: Please tell me: IC50 of "[2H]C([2H])([2H])c1nc(N(C)c2ccc([Se]C)cc2)c2ccccc2n1" , system MDA-MB-231?
Resp: 9
